Values compiled from patent US7052705.

target: VEGFR-2/NP-1 co-expressed (human, UniProt P35968); experiment: competition, Balb/c
Sequence (P35968 20-764, chain 1 of 2): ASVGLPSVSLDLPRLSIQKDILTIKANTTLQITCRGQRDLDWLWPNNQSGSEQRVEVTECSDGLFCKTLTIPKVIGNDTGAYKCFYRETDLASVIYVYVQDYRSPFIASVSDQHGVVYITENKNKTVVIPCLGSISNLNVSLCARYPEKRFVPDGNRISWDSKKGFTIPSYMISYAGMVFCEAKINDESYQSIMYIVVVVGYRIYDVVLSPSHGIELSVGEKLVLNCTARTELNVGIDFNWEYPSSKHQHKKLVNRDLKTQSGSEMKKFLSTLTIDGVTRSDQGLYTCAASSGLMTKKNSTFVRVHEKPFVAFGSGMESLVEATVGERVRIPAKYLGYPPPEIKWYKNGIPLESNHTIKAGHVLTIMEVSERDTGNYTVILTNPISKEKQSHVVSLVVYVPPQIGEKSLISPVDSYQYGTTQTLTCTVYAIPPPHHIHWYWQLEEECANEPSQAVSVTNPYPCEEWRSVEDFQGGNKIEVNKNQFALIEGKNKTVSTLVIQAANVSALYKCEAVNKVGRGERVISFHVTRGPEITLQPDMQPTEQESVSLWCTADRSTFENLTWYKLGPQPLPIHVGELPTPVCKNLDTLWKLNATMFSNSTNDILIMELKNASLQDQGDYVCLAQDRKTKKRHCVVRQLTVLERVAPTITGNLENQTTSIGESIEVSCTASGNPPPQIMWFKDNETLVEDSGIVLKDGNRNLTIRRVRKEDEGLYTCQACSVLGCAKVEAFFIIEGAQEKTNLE
Sequence (chain, as listed by the source, chain 2 of 2): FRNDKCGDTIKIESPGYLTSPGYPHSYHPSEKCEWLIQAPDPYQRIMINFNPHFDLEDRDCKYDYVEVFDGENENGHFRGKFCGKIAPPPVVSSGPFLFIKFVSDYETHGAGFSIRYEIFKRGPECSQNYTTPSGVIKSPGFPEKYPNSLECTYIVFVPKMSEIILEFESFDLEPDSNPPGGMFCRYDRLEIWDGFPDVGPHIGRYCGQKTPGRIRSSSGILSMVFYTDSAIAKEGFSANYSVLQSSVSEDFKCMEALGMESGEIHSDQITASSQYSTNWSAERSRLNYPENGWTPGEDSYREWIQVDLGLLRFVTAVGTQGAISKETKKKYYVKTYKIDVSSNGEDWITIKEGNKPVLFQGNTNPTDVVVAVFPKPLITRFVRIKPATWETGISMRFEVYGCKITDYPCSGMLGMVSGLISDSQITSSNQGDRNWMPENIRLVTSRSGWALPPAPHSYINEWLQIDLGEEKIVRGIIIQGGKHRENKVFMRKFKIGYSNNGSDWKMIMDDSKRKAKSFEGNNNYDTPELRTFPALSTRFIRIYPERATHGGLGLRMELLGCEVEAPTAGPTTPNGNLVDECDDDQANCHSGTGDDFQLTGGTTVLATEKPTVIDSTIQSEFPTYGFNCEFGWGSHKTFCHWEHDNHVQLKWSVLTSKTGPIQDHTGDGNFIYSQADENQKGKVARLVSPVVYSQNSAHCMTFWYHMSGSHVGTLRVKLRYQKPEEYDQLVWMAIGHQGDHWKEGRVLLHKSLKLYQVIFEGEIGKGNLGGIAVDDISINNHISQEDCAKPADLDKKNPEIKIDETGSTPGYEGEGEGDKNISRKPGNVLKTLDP
ASSAY_READOUT: pIC50
Entry type: numeric. Quantity: pIC50, the -log10 of concentration in molar units.

Request: Recorded pIC50 for RRPKGRGKRRREAAAPSDKPRR [AS-4] , please?
Response: 6.52
